Molecular target: T1, human CD22 domain5-7-His (human, UniProt P20273 414-687)
T1 construct: also called hCD22 domain5-7-His; not shown: His tag
T1 sequence: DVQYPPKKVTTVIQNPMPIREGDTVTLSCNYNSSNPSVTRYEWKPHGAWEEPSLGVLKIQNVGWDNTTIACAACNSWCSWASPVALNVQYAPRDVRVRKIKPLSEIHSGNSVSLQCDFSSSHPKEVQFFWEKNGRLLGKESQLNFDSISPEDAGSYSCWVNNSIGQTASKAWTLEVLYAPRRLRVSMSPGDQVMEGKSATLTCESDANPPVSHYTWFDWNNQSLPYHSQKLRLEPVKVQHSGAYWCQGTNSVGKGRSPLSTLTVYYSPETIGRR
Assay: ELISA, plate coated with human CD22 domain5-7-His

# Binder, binding result
records = [
    ("F1.62.10 (antibody, human IgG1, kappa, V domains shown, Chimeric IgG1 kappa) VH: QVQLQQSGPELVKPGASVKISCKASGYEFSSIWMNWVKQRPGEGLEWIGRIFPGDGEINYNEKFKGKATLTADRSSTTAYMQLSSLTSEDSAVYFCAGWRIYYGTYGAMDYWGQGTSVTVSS VL: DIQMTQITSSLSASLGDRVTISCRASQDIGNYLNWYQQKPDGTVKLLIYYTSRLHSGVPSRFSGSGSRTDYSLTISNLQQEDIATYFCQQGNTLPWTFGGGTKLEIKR", "no binding"),
    ("F1.267.9 (antibody, human IgG1, kappa, V domains shown, Chimeric IgG1 kappa) VH: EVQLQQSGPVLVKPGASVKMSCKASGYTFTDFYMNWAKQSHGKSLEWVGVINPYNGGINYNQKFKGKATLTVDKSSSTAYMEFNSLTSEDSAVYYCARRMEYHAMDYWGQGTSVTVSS VL: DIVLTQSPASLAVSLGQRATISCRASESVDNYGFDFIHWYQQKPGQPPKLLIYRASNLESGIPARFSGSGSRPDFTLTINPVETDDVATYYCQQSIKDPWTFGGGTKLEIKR", "no binding"),
]
